- TEST_SYSTEM: HIV RT recovered from patient plasma (Human immunodeficiency virus type 1)
- MEASUREMENT_DESCRIPTION: Susceptibility to NNRTIs using plasma derived RTs
- Assay type: biochemical, HIV-1
- EXPERIMENTAL_CONDITIONS: IC50, plasma RT of patient code 1885; 1.7 fg/well
pIC50: −log10 of the molar value.

QUERY_SMILES: CC(C)Nc1cccnc1N1CCN(C(=O)c2cc3cc(NS(C)(=O)=O)ccc3[nH]2)CC1
pIC50: 5.05

====

- TEST_SYSTEM: HIV RT recovered from patient plasma (Human immunodeficiency virus type 1)
- MEASUREMENT_DESCRIPTION: Susceptibility to NNRTIs using plasma derived RTs
- Format: biochemical, HIV-1
- EXPERIMENTAL_CONDITIONS: IC50, plasma RT of patient code 1424; 1.7 fg/well
- Source text: Place them in a Nalgene box. Suck the gels dry after each wash. […] Refit the upper part of the device.
pIC50: −log10 of the molar value.

QUERY_SMILES: CC(C)Nc1cccnc1N1CCN(C(=O)c2cc3cc(NS(C)(=O)=O)ccc3[nH]2)CC1
pIC50: 5.09

====

- TEST_SYSTEM: HIV RT recovered from patient plasma (Human immunodeficiency virus type 1)
- MEASUREMENT_DESCRIPTION: Susceptibility to NNRTIs using plasma derived RTs
- Format: biochemical, HIV-1
- EXPERIMENTAL_CONDITIONS: IC50, plasma RT of patient code 1572; 1.7 fg/well
- From the text: Place them in a Nalgene box. Suck the gels dry after each wash. […] Refit the upper part of the device.

MOLECULE: CC(C)Nc1cccnc1N1CCN(C(=O)c2cc3cc(NS(C)(=O)=O)ccc3[nH]2)CC1 [Delaviridine]
IC50 (µM): 9.54

====

pIC50 values, listed per item
- TEST_SYSTEM: HIV RT recovered from patient plasma (Human immunodeficiency virus type 1, UniProt P03366)
- MEASUREMENT_DESCRIPTION: Susceptibility to AZT-TP and d4T-TP using plasma derived RTs (Chain-termination reaction mixture)
- EXPERIMENTAL_CONDITIONS: IC50, plasma RT of patient code 662; 5 fg/well
pIC50: −log10 of the molar value.
READOUT: pIC50

COMPOUND: Cc1cn(C2CC(N=[N+]=[N-])C(COP(=O)(O)OP(=O)(O)OP(=O)(O)O)O2)c(=O)[nH]c1=O (centres unmarked)
READOUT: pIC50
VAL: 6.30
--
COMPOUND: Cc1cn([C@H]2C=C[C@@H](COP(=O)(O)OP(=O)(O)OP(=O)(O)O)O2)c(=O)[nH]c1=O
READOUT: pIC50
VAL: 7.19

====

- TEST_SYSTEM: HIV RT recovered from patient plasma (Human immunodeficiency virus type 1, UniProt P03366)
- MEASUREMENT_DESCRIPTION: Susceptibility to AZT-TP and d4T-TP using plasma derived RTs (Chain-termination reaction mixture)
- EXPERIMENTAL_CONDITIONS: IC50, plasma RT of patient code 181; 5 fg/well
IC50 values, listed per item
READOUT: IC50 (nM)

COMPOUND: Cc1cn([C@H]2C=C[C@@H](COP(=O)(O)OP(=O)(O)OP(=O)(O)O)O2)c(=O)[nH]c1=O
READOUT: IC50
UNIT_TEXT: nM
VAL: 49

COMPOUND: Cc1cn(C2CC(N=[N+]=[N-])C(COP(=O)(O)OP(=O)(O)OP(=O)(O)O)O2)c(=O)[nH]c1=O (centres unmarked)
READOUT: IC50
UNIT_TEXT: nM
VAL: 500
